Source listed as patent US20240336686A1.

# SYSTEM UNDER TEST: T1, human SIRPα v2 ECD recombinant protein (human)
# T1 construct: extracellular domain; Coated on the ELISA plate
# MEASUREMENT PROTOCOL: competitive ELISA, plate-coated human SIRPα v2 ECD; blocked ligand: mFc tagged human CD47 ECD
The following binders are listed with their measured IC50 values.
Response body: numeric value in nM, unit text excluded.

INSERT INTO results (binder, unit_text, recorded_measurement) VALUES
  ('Humanized anti-SIRPα antibody hu025.060 (antibody, V domains shown, Humanized from C25) VH: EVQLVQSGAEVKKPGATVKISCKASGFNIKDYYMHWVQQAPGKGLEWIGRIDPEDAETKYAPKFQGRVTITADTSTNTAYMELSSLRSEDTAVYYCDRGLAYWGQGTLVTVSS VL: EIVLTQSPATLSLSPGERATLSCSASSSVSSSYLYWYQQKPGQAPKLWIYSTSNLASGIPARFSGSGSGTDFTLTISSLEPEDFAVYYCHQWSSYPYTFGQGTKLEIK', 'nM', 1.88),
  ('Anti-SIRPα antibody C25 (antibody, V domains shown, Mouse variable regions; also called 025c; 025) VH: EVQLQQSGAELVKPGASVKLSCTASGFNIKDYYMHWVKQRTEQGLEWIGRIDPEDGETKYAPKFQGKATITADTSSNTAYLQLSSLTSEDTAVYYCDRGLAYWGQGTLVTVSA VL: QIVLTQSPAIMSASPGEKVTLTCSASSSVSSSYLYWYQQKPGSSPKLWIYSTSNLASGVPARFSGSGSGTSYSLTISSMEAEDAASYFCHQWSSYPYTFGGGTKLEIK', 'nM', 1.86),
  ('Humanized anti-SIRPα antibody hu025.033 (antibody, V domains shown, Humanized from C25) VH: EVQLVQSGAEVKKPGATVKISCKVSGFNIKDYYMHWVQQAPGKGLEWIGRIDPEDAETKYAPKFQGRVTITADTSTDTAYMELSSLRSEDTAVYYCDRGLAYWGQGTLVTVSS VL: EIVLTQSPATLSLSPGERATLSCSASSSVSSSYLYWYQQKPGQAPKLWIYSTSNLASGIPARFSGSGSGTDYTLTISSLEPEDFAVYYCHQWSSYPYTFGQGTKLEIK', 'nM', 1.88),
  ('Humanized anti-SIRPα antibody hu025.021 (antibody, V domains shown, Humanized from C25) VH: EVQLVQSGAEVKKPGATVKISCKVSGFNIKDYYMHWVQQAPGKGLEWIGRIDPEDAETKYAPKFQGRVTITADTSTNTAYMELSSLRSEDTAVYYCDRGLAYWGQGTLVTVSS VL: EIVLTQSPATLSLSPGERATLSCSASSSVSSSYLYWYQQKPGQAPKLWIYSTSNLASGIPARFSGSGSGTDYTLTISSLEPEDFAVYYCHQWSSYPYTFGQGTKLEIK', 'nM', 1.96),
  ('Humanized anti-SIRPα antibody hu025.023 (antibody, V domains shown, Humanized from C25) VH: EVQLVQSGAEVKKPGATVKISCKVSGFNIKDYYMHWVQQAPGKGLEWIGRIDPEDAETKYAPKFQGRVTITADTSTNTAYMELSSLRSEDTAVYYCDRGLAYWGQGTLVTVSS VL: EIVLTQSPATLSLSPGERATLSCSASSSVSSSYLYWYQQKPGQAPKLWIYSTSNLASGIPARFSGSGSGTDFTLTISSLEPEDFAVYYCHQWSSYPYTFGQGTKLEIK', 'nM', 2.07);

// next entry
// recorded IC50 for Humanized anti-SIRPα antibody hu025.059 (antibody, V domains shown, Humanized from C25) VH: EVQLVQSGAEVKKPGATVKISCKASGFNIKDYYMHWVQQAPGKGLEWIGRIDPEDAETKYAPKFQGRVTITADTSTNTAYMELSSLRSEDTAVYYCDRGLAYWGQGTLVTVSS VL: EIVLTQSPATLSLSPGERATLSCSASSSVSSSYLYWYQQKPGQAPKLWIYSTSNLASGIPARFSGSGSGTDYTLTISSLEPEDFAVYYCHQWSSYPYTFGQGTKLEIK : 2.03
